Target: AChE from electric eel (EeAChE) (Electrophorus electricus)
Construct: Acetylcholinesterase used was obtained from electric eel (Electrophorus electricus L; EeAChE); purchased Sigma-Aldrich (Prague, Czech Republic); host or cells: electric eel (natural source)
Sequence (O42275 24-633): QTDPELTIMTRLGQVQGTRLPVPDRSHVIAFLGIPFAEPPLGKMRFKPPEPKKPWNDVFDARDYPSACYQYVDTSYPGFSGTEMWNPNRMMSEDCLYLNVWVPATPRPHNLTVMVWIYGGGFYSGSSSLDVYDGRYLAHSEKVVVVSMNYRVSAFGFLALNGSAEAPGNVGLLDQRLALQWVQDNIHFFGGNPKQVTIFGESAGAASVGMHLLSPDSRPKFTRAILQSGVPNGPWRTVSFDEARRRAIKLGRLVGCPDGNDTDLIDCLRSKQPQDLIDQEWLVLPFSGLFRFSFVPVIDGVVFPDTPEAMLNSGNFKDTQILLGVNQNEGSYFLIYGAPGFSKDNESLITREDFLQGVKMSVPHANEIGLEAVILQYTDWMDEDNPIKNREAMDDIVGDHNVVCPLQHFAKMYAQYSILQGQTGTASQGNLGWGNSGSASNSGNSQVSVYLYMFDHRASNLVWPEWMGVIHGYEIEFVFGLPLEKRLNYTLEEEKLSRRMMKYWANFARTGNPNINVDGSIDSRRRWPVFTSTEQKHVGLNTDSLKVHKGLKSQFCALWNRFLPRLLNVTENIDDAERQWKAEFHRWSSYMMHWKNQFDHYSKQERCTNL
Test: biochemical
Details: ratio of IC50 for BuChE/IC50 for AChE
Experimental: Newly synthesized N-alkyl-2-[4-(trifluoromethyl)benzoyl]hydrazine-1-carboxamides 2a–2q were evaluated for their in vitro potency to inhibit AChE from electric eel (EeAChE) and BuChE from equine serum (EqBuChE) using modified Ellman’s spectrophotometric method. […] Based on IC50 values for both enzymes, selectivity indexes (SI) as the ratio of IC50 for BuChE/IC50 for AChE to quantify the preference for AChE were calculated (Table 1). […]
Under this convention, yes (1) denotes Selectivity BuChE/AChE (selectivity index, SI) strictly below 2 and no (0) denotes Selectivity BuChE/AChE (selectivity index, SI) at or above 2.

[[record]]
sample_smiles = "CCCCCCCCCNC(=O)NNC(=O)c1ccc(C(F)(F)F)cc1"
assigned_class = "yes (1)"

[[record]]
sample_smiles = "CCCCCCCCCCCNC(=O)NNC(=O)c1ccc(C(F)(F)F)cc1"
assigned_class = "no (0)"

[[record]]
sample_smiles = "CCCCCNC(=O)NNC(=O)c1ccc(C(F)(F)F)cc1"
assigned_class = "yes (1)"

[[record]]
sample_smiles = "CCCCCCNc1nnc(-c2ccc(C(F)(F)F)cc2)o1"
assigned_class = "yes (1)"

[[record]]
sample_smiles = "CCCCNC(=O)NNC(=O)c1ccc(C(F)(F)F)cc1"
assigned_class = "no (0)"

[[record]]
sample_smiles = "CCNC(=O)NNC(=O)c1ccc(C(F)(F)F)cc1"
assigned_class = "yes (1)"

[[record]]
sample_smiles = "CCCCCCCCCCCCCNC(=O)NNC(=O)c1ccc(C(F)(F)F)cc1"
assigned_class = "no (0)"

[[record]]
sample_smiles = "CNC(=O)NNC(=O)c1ccc(C(F)(F)F)cc1"
assigned_class = "no (0)"

[[record]]
sample_smiles = "CCCCCC(=O)NNC(=O)c1ccc(C(F)(F)F)cc1"
assigned_class = "yes (1)"

[[record]]
sample_smiles = "CCCCCCCCCCCCCCNC(=O)NNC(=O)c1ccc(C(F)(F)F)cc1"
assigned_class = "no (0)"

[[record]]
sample_smiles = "CCCCCCCCNC(=O)NNC(=O)c1ccc(C(F)(F)F)cc1"
assigned_class = "yes (1)"

[[record]]
sample_smiles = "CCCCCCCCCCCCCCCC(=O)NNC(=O)c1ccc(C(F)(F)F)cc1"
assigned_class = "yes (1)"

[[record]]
sample_smiles = "CCCCCCCCCCCCCCCCNC(=O)NNC(=O)c1ccc(C(F)(F)F)cc1"
assigned_class = "no (0)"

[[record]]
sample_smiles = "CCCCCCCCCCCCNC(=O)NNC(=O)c1ccc(C(F)(F)F)cc1"
assigned_class = "no (0)"

[[record]]
sample_smiles = "CCCCCCCCCCCCCCCNC(=O)NNC(=O)c1ccc(C(F)(F)F)cc1"
assigned_class = "no (0)"

[[record]]
sample_smiles = "CCCCCCCCCCNC(=O)NNC(=O)c1ccc(C(F)(F)F)cc1"
assigned_class = "no (0)"

[[record]]
sample_smiles = "CCCCCCNC(=O)NNC(=O)c1ccc(C(F)(F)F)cc1"
assigned_class = "yes (1)"

[[record]]
sample_smiles = "CCCCCCCNC(=O)NNC(=O)c1ccc(C(F)(F)F)cc1"
assigned_class = "yes (1)"

